# assay_info: In vivo zebrafish kinetics of BPZ (water exposure, organ concentrations by LC-MS/MS)
# Set-up: species or system zebrafish (Danio rerio)
# conditions_used: female, zebrafish, liver, other: water exposure, 10 µg/L, female zebrafish, 24 h; read-out: Mean concentration, liver
measured_attribute: concentration at 24 h (ng/g)
Write the value in ng/g as a bare number.

In: For the molecule Oc1ccc(C2(c3ccc(O)cc3)CCCCC2)cc1 [BPZ, bisphenol Z] , report concentration at 24 h.
Out: 364

---

# assay_info: In vivo zebrafish kinetics of BPZ (water exposure, organ concentrations by LC-MS/MS)
# Design: species or system zebrafish (Danio rerio)
# conditions_used: female, zebrafish, carcass, other: water exposure, 10 µg/L, female zebrafish, 6 h; read-out: Mean concentration, carcass
measured_attribute: concentration at 6 h

In: For the molecule Oc1ccc(C2(c3ccc(O)cc3)CCCCC2)cc1 [BPZ, bisphenol Z] , report concentration at 6 h.
Out: 160 ng/g

---

# assay_info: In vivo zebrafish kinetics of BPZ (water exposure, organ concentrations by LC-MS/MS)
# Parameters: species or system zebrafish (Danio rerio)
# conditions_used: female, zebrafish, brain, other: water exposure, 10 µg/L, female zebrafish, 6 h; read-out: Mean concentration, brain
measured_attribute: concentration at 6 h (ng/g)
Write the value in ng/g as a bare number.

In: For the molecule Oc1ccc(C2(c3ccc(O)cc3)CCCCC2)cc1 [BPZ, bisphenol Z] , report concentration at 6 h.
Out: 72

---

# assay_info: In vivo zebrafish kinetics of BPZ (water exposure, organ concentrations by LC-MS/MS)
# Parameters: species or system zebrafish (Danio rerio)
# conditions_used: female, zebrafish, ovary, other: water exposure, 10 µg/L, female zebrafish, 48 h; read-out: Mean concentration, ovary
measured_attribute: concentration at 48 h (ng/g)
Write the value in ng/g as a bare number.

In: For the compound Oc1ccc(C2(c3ccc(O)cc3)CCCCC2)cc1 [BPZ, bisphenol Z] , report concentration at 48 h.
Out: 146

---

# assay_info: In vivo zebrafish kinetics of BPZ (water exposure, organ concentrations by LC-MS/MS)
# Parameters: species or system zebrafish (Danio rerio)
# conditions_used: female, zebrafish, liver, other: exposure via tank water, 10 μg/L (nominal water concentration), female zebrafish, 483 h (depuration phase); read-out: Mean concentration, liver
measured_attribute: concentration at 483 h (ng/g)
Write the value in ng/g as a bare number.

In: For the molecule Oc1ccc(C2(c3ccc(O)cc3)CCCCC2)cc1 , report concentration at 483 h.
Out: 252

---

# assay_info: In vivo zebrafish kinetics of BPZ (water exposure, organ concentrations by LC-MS/MS)
# Parameters: species or system zebrafish (Danio rerio)
# conditions_used: female, zebrafish, carcass, other: exposure via tank water, 10 μg/L (nominal water concentration), female zebrafish, 576 h (depuration phase); read-out: Mean concentration, carcass
measured_attribute: concentration at 576 h (ng/g)
Write the value in ng/g as a bare number.

In: For the molecule Oc1ccc(C2(c3ccc(O)cc3)CCCCC2)cc1 , report concentration at 576 h.
Out: 1.6

---

# assay_info: In vivo zebrafish kinetics of BPZ (water exposure, organ concentrations by LC-MS/MS)
# Design: species or system zebrafish (Danio rerio)
# conditions_used: female, zebrafish, brain, other: exposure via tank water, 10 μg/L (nominal water concentration), female zebrafish, 576 h (depuration phase); read-out: Mean concentration, brain
measured_attribute: concentration at 576 h

In: For the compound Oc1ccc(C2(c3ccc(O)cc3)CCCCC2)cc1 , report concentration at 576 h.
Out: < 2.5 ng/g

These data points were gathered from paper PMC9301920.
